- System: 171881-019-R-J1-PDC multicell spheroid viability
- method.notes: Anticancer human tumor 171881-019-R-J1-PDC patient-derived invasive breast carcinoma cell line growth inhibition [IpAb]; active = viability on the fitted dose curve at most 10% of control; inactive = the rest
- test.settings: second compound 3.16 µM; first compound 0.1 µM
Classes used: TRUE = active, FALSE = inactive

| compound | group.label |
| --- | --- |
| CC1(C)CCC(CN2CCN(c3ccc(C(=O)NS(=O)(=O)c4ccc(NCC5CCOCC5)c([N+](=O)[O-])c4)c(Oc4cnc5[nH]ccc5c4)c3)CC2)=C(c2ccc(Cl)cc2)C1 + CC(C)NCC(C(=O)N1CCN(c2ncnc3c2C(C)CC3O)CC1)c1ccc(Cl)cc1 | FALSE |
| Cn1ncc(Cl)c1-c1cc(C(=O)NC(CN)Cc2cccc(F)c2)sc1Cl (configuration not stated) + CC(C)NCC(C(=O)N1CCN(c2ncnc3c2C(C)CC3O)CC1)c1ccc(Cl)cc1 | FALSE |
| Cc1nc(NC(=O)N2CCCC2C(N)=O)sc1-c1ccnc(C(C)(C)C(F)(F)F)c1 (configuration not stated) + CC(C)NCC(C(=O)N1CCN(c2ncnc3c2C(C)CC3O)CC1)c1ccc(Cl)cc1 | TRUE |
| CCCS(=O)(=O)Nc1ccc(F)c(C(=O)c2c[nH]c3ncc(-c4ccc(Cl)cc4)cc23)c1F + CC(C)NCC(C(=O)N1CCN(c2ncnc3c2C(C)CC3O)CC1)c1ccc(Cl)cc1 | FALSE |
| C=CCn1c(=O)c2cnc(Nc3ccc(N4CCN(C)CC4)cc3)nc2n1-c1cccc(C(C)(C)O)n1 + CC(C)NCC(C(=O)N1CCN(c2ncnc3c2C(C)CC3O)CC1)c1ccc(Cl)cc1 | TRUE |
| Cn1nccc1Nc1nccc(-c2ccn(C(CO)c3ccc(Cl)c(F)c3)c(=O)c2)n1 (configuration not stated) + CC(C)NCC(C(=O)N1CCN(c2ncnc3c2C(C)CC3O)CC1)c1ccc(Cl)cc1 | TRUE |
| CC(C)n1nc(-c2ccc3oc(N)nc3c2)c2c(N)ncnc21 + CC(C)NCC(C(=O)N1CCN(c2ncnc3c2C(C)CC3O)CC1)c1ccc(Cl)cc1 | TRUE |

---

- Test system: 171881-019-R-J1-PDC multicell spheroid viability
- method.notes: Anticancer human tumor 171881-019-R-J1-PDC cell line growth inhibition [IpAb];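 note: spheroids exposed to the agents for seven days before readout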
- test.settings: second compound 0.1 µM; first compound 0.00316 µM; active compounds read low
quantity.name: viability, T/C (%)

| compound | measurement |
| --- | --- |
| CC(C)n1nc(-c2ccc3oc(N)nc3c2)c2c(N)ncnc21 + CCN1CCN(Cc2ccc(Nc3ncc(F)c(-c4cc(F)c5nc(C)n(C(C)C)c5c4)n3)nc2)CC1 | 75.8 |
| Cn1ncnc1[C@H]1c2n[nH]c(=O)c3cc(F)cc(c23)N[C@@H]1c1ccc(F)cc1 + CCN1CCN(Cc2ccc(Nc3ncc(F)c(-c4cc(F)c5nc(C)n(C(C)C)c5c4)n3)nc2)CC1 | 115 |
| COc1c(OCCCN2CCOCC2)ccc2c3n(c(=NC(=O)c4cnc(N)nc4)nc12)CCN3 + CCN1CCN(Cc2ccc(Nc3ncc(F)c(-c4cc(F)c5nc(C)n(C(C)C)c5c4)n3)nc2)CC1 | 115 |
| Cn1ncnc1[C@H]1c2n[nH]c(=O)c3cc(F)cc(c23)N[C@@H]1c1ccc(F)cc1 + CC(C)NCC(C(=O)N1CCN(c2ncnc3c2C(C)CC3O)CC1)c1ccc(Cl)cc1 | 121 |
| COc1c(OCCCN2CCOCC2)ccc2c3n(c(=NC(=O)c4cnc(N)nc4)nc12)CCN3 + CC(C)NCC(C(=O)N1CCN(c2ncnc3c2C(C)CC3O)CC1)c1ccc(Cl)cc1 | 94.5 |
| CC(C)n1nc(-c2ccc3oc(N)nc3c2)c2c(N)ncnc21 + CC(C)NCC(C(=O)N1CCN(c2ncnc3c2C(C)CC3O)CC1)c1ccc(Cl)cc1 | 56.6 |
